# System under test: Autotaxin (Homo sapiens)

| Compound | IC50 |
| --- | --- |
| NS(=O)(=O)c1ccc(C(=O)N2C[C@H]3CN(C(=O)COc4ccc(OC(F)(F)F)cc4)C[C@]3(F)C2)c(F)c1 (relative stereo) | 7 nM |
